Recorded measurements of inhibition, one per entry
- ASSAYED_SYSTEM: Serine racemase (Homo sapiens)
- EXPERIMENT_DESCRIPTION: Inhibition of recombinant human SRR expressed in Escherichia coli assessed as reduction in conversion of L-serine to D-serine at 0.1 mM incubated for => 8 hrs in presence of PLP and recombinant D-serine dehydratase 1 by spectrophotometry relative to control
Response body: numeric value in %, unit text excluded.

In the examples that follow, each entry is paired with its recorded inhibition.
COMPOUND_STRING | ASSAYED_SYSTEM | MEASURED_QUANTITY | MEASURED_VALUE
Cc1ccc(S(=O)(=O)NCC(=O)NNC(=O)Cc2ccc(F)cc2)cc1 | Serine racemase (Homo sapiens) | inhibition | 60
O=C(CNS(=O)(=O)Cc1ccccc1)Nc1c(F)cccc1F | Serine racemase (Homo sapiens) | inhibition | 77
Cc1ccc(S(=O)(=O)NCC(=O)Nc2cccc([N+](=O)[O-])c2)cc1 | Serine racemase (Homo sapiens) | inhibition | 62

Task: Read off the recorded inhibition for "O=C(Cc1ccc(F)cc1)NNC(=S)NC(=O)CC1CCCCC1"
Result: 67

Task: Read off the recorded inhibition for "Cc1ccc(S(=O)(=O)NCC(=O)OCc2ccccc2)cc1"
Result: 84

Task: Read off the recorded inhibition for "O=C(Cc1ccc(F)cc1)NNC(=S)NC(=O)Cc1c(F)cccc1F"
Result: 66

Task: Read off the recorded inhibition for "Cc1ccc(S(=O)(=O)NCC(=O)Nc2ccc(OCc3ccccc3)cc2)cc1"
Result: 56

Task: Read off the recorded inhibition for "COc1ccc(S(=O)(=O)NCC(=O)Nc2cccc(Br)c2)cc1"
Result: 59

Task: Read off the recorded inhibition for "Cc1ccc(S(=O)(=O)NCC(=O)N[C@@H](C)c2ccccc2)cc1"
Result: 86

Where do these numbers come from? They come from ChEMBL document CHEMBL4418278.
